Tested on: kochia (Kochia scoparia)
testProtocol: Test A postemergence, visual plant response rating
Assay type: in vivo
assayContext: Postemergence, 125 g ai/ha; 0 to 100 scale (0 no effect, 100 complete control)
Each record here notes measured Kochia plant response rating.

{"compound": "CO/N=C(/c1c(O)c(C)nn(C)c1=O)c1cc(Br)cc2ccccc12 [Compound 99]", "Kochia plant response rating": 50}
{"compound": "CO/N=C(\\c1cccc(C)c1C)c1c(O)c(C)nn(C)c1=O [Compound 22]", "Kochia plant response rating": 20}
{"compound": "CON=C(c1c(OC(C)=O)c(C)nn(C)c1=O)c1cccc2ccccc12 [Compound 48]", "Kochia plant response rating": 70}
{"compound": "CO/N=C(\\c1ccccc1C#N)c1c(O)c(C)nn(C)c1=O [Compound 76]", "Kochia plant response rating": 0}
{"compound": "C#CCO/N=C(/c1c(O)c(C)nn(C)c1=O)c1ccc(F)c2ccccc12 [Compound 109]", "Kochia plant response rating": 70}
{"compound": "CCO/N=C(/c1ccccc1C)c1c(O)c(C)nn(C)c1=O [Compound 15]", "Kochia plant response rating": 0}
{"compound": "CON=C(c1c(O)c(C)nn(C)c1=O)c1ccc(Cl)c2ccccc12 [Compound 130]", "Kochia plant response rating": 50}
{"compound": "CCCO/N=C(\\c1c(O)c(C)nn(C)c1=O)c1cccc2ccccc12 [Compound 80]", "Kochia plant response rating": 30}
{"compound": "C=CCO/N=C(\\c1c(O)c(C)nn(C)c1=O)c1ccc(F)c2ccccc12 [Compound 86]", "Kochia plant response rating": 40}
{"compound": "CO/N=C(\\c1ccsc1C)c1c(O)c(C)nn(C)c1=O [Compound 43]", "Kochia plant response rating": 0}
{"compound": "CCc1cccc(C(=NOC)c2c(O)c(C)nn(C)c2=O)c1 [Compound 36]", "Kochia plant response rating": 60}

* * *

Each record here notes measured Corn plant response rating (0 to 100 scale).
System: corn (Zea mays)
testProtocol: Test C postemergence, visual plant response rating
Type: in vivo
assayContext: Test C, postemergence, 125 g ai/ha
propertyName: Corn plant response rating (0 to 100 scale)

{"compound": "CO/N=C(/c1ccc(F)c(Cl)c1)c1c(O)c(C)nn(C)c1=O [Compound 218]", "valueMeasured": 0}
{"compound": "CO/N=C(/c1c(O)c(C)nn(C)c1=O)c1cccc2cc(Cl)ccc12 [Compound 301]", "valueMeasured": 20}
{"compound": "C#CCON=C(c1cc(Cl)cc(Cl)c1Cl)c1c(O)c(C)nn(C)c1=O [Compound 296]", "valueMeasured": 20}
{"compound": "CC(C)O/N=C(\\c1c(O)c(Cl)nn(C)c1=O)c1cc(Br)cc2ccccc12 [Compound 233]", "valueMeasured": 10}
{"compound": "CO/N=C(/c1c(O)c(C)nn(C)c1=O)c1cccc2cc(Cl)ccc12 [Compound 159]", "valueMeasured": 30}

* * *

Tested on: blackgrass (Alopecurus myosuroides)
testProtocol: Test A postemergence, visual plant response rating
Format: in vivo
assayContext: Postemergence, 125 g ai/ha; 0 to 100 scale (0 no effect, 100 complete control)
# if measured Blackgrass plant response rating < 10: y  # else: n

{"molecule": "CCO/N=C(/c1c(O)c(Cl)nn(C)c1=O)c1cccc2ccccc12 [Compound 147]", "category": "n"}
{"molecule": "CO/N=C(\\c1c(O)c(C)nn(C)c1=O)c1cc(Br)cc2ccccc12 [Compound 91]", "category": "n"}
{"molecule": "CON=C(c1c(Cl)ccc(C)c1F)c1c(O)c(C)nn(C)c1=O [Compound 101]", "category": "y"}
{"molecule": "C#CCO/N=C(/c1c(O)c(C)nn(C)c1=O)c1cc(Br)cc2ccccc12 [Compound 112]", "category": "n"}
{"molecule": "CO/N=C(\\c1cscc1C)c1c(O)c(C)nn(C)c1=O [Compound 52]", "category": "y"}
{"molecule": "C#CCO/N=C(\\c1c(O)c(C)nn(C)c1=O)c1ccc(F)c2ccccc12 [Compound 108]", "category": "n"}
{"molecule": "CON=C(c1c(O)c(C)nn(C)c1=O)c1ccc(Cl)c2ccccc12 [Compound 130]", "category": "n"}
{"molecule": "CON=C(c1c(O)c(C)nn(C)c1=O)c1ccc(Cl)c2ccccc12 [Compound 40]", "category": "n"}
{"molecule": "CO/N=C(/c1c(O)c(C)nn(C)c1=O)c1ccc(OC)c2ccccc12 [Compound 142]", "category": "n"}
{"molecule": "CCO/N=C(\\c1cccc(C)c1C)c1c(O)c(C)nn(C)c1=O [Compound 25]", "category": "y"}
{"molecule": "CON=C(c1cccc(Cl)c1)c1c(O)c(C)nn(C2CC2)c1=O (mixture of isomers) [Compound 33]", "category": "y"}
{"molecule": "Cc1cccc(/C(=N\\O)c2c(O)c(C)nn(C)c2=O)c1 [Compound 21]", "category": "y"}
{"molecule": "CO/N=C(/c1cccc(Cl)c1)c1c(O)c(C)nn(C)c1=O [Compound 11]", "category": "n"}
{"molecule": "CCCc1ccccc1/C(=N\\OC)c1c(O)c(C)nn(C)c1=O [Compound 92]", "category": "n"}
{"molecule": "CO/N=C(\\c1ccsc1C)c1c(O)c(C)nn(C)c1=O [Compound 43]", "category": "y"}
{"molecule": "C#CCO/N=C(/c1c(O)c(C)nn(C)c1=O)c1cccc2ccccc12 [Compound 82]", "category": "n"}
